Measured pEC50, listed per entry.
# SYSTEM_NAME: BMP2 (Bone Morphogenetic Protein 2) (UniProt P12643 283-396)
# Sequence (P12643 283-396 limits assumed): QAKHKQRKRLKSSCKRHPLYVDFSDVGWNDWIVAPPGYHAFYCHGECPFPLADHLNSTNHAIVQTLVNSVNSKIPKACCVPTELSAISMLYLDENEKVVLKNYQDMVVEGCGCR
# PROTOCOL_DESCRIPTION: ELISA: composition (10 uM) pre-bound to DBM, serial dilutions of BMP-2, detected with anti-BMP-2 antibody
pEC50: −log10 of the molar value. Where no end group is shown, it is not given here.

Query: Returns the measured pEC50 for the input binder. Input: SFGSWWWGSGAASSRGSSGGGALGFPLKGEVVEGWAGSSGK (also: biotin linked to C-terminal GSSGK linker, site not given here)
Reply: > 8.00

Query: Record: SWWGFWNGSAAPVWSRGSSESAGAWEAFSSLSGSRVGSSGK (also: biotin linked to C-terminal GSSGK linker, site not given here)
Reply: > 8.00
